system: CD2F1 mice, L1210 leukemia ip, survival T/C; assay: NCI In Vivo Anticancer Drug Screen. Data for tumor model L1210 Leukemia (intraperitoneal) in CD2F1 (CDF1) mice; details: endpoint: mean survival time; dose: 200.0 mg/kg/injection; schedule: Q01DX001 (ip); vehicle: saline with Tween-80; higher = longer survival
Inconclusive results and toxic doses are left out.
// reported T/C per item

Answered examples (5):
[
  {
    "molecule": "CC1CC(C)(C)N=C(CC(=O)N2Cc3cc4ccccc4nc3C2)O1 (stereo not drawn)",
    "T/C": "104 % of control"
  },
  {
    "molecule": "CC(=O)CC(=O)N(C)Cc1ccccc1",
    "T/C": "104 % of control"
  },
  {
    "molecule": "O=c1[nH]c2cnn(-c3ccccc3)c2[nH]1",
    "T/C": "97 % of control"
  },
  {
    "molecule": "CN1C(CC(O)(c2ccccc2)c2ccccc2)CCCC1CC(O)(c1ccccc1)c1ccccc1 (stereo not drawn)",
    "T/C": "96 % of control"
  },
  {
    "molecule": "O=c1[nH]cc(Cc2cccc3ccccc23)c(=O)[nH]1",
    "T/C": "94 % of control"
  }
]

Query: Identify measured T/C associated with O=C(/C(Br)=C/c1ccccc1[N+](=O)[O-])c1ccccc1
Response: 95 % of control

Query: Quickly give me recorded T/C for Cc1nnc(-c2ccccc2)c(-c2ccccc2)n1
Response: 95 % of control

Query: Assign T/C to the following record: CC(C)(CO)C(O)C(=O)NCCS(=O)(=O)c1ccc(F)cc1 (stereo not drawn)
Response: 95 % of control

Query: Kindly indicate its recorded T/C. Item: CCCCOC(=O)c1cnc[nH]c1=O
Response: 93 % of control

Query: Give me measured T/C, please, for this molecule: Nc1cccc(CCc2ccc(-c3nc4ncnc(N)c4[nH]3)cc2)c1
Response: 88 % of control

Query: Specify T/C for Nc1nc[nH]c(=O)c1N and stop.
Response: 107 % of control

Query: Check the records and state T/C for N=C(N)c1cccc(NC(=O)CCc2ccccc2)c1
Response: 93 % of control

Query: Please report T/C for the following molecule: COc1ccc(C(=S)c2ccc(OC)cc2)cc1
Response: 96 % of control

Query: Report T/C for O=C1C=C(NCCO)C(=O)C=C1NCCO
Response: 90 % of control

Query: Supply measured T/C of CCC(C=O)(CC)CCC#N in your reply.
Response: 100 % of control

Query: Please look at this molecule and report its T/C: CCN(CC)CCNc1ncnc(N)c1C(=C(C)C)c1ccc(Cl)cc1
Response: 86 % of control

Query: For the molecule Cc1ccc2c(c1)C(=NCCCN=C1C(=O)Nc3ccc(C)cc31)C(=O)N2 , report T/C.
Response: 95 % of control

Query: # return recorded T/C for input C#CC(CC)OC(=O)c1cc([N+](=O)[O-])cc([N+](=O)[O-])c1 (stereo not drawn)
Response: 94 % of control
